Each recorded value in this set is attributed to patent US8338465B2.

Below is a list of entries, each paired with its recorded IC50 value.
Molecular target: dihydrolipoamide acyltransferase (DlaT) (Mycobacterium tuberculosis, UniProt P9WIS7)
Sequence (P9WIS7 1-553): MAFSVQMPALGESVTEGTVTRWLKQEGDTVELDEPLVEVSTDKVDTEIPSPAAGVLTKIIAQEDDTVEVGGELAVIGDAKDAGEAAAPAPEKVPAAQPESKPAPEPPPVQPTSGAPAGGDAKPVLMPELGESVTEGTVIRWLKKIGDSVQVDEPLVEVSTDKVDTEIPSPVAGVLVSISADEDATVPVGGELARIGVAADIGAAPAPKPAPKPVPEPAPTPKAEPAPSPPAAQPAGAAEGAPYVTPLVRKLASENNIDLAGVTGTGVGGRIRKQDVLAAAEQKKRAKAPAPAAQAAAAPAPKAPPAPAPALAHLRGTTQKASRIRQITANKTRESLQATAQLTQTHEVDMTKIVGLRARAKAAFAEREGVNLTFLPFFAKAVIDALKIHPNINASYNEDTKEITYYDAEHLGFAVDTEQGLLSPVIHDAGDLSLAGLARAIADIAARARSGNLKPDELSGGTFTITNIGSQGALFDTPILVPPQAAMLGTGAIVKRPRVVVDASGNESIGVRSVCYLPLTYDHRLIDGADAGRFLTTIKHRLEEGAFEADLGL
Assay: DlaT inhibition (Dlat IC50); DTNB peroxidase assay with Lpd, DlaT and AhpD
Assay type: biochemical
Details: Table 1, Compounds A1 to A294; read-out: Dlat IC50 category
endpoint: IC50

1. O=C(O)c1cccc(N2C(=O)C(=Cc3ccc(-c4ccc(Cc5ccccc5)cc4)o3)SC2=S)c1 [Compound A3] ... < 10 µM
2. CCCc1ccc(-c2ccc(C=C3SC(=S)N(c4cc(C(=O)O)ccc4F)C3=O)o2)cc1 [Compound A270] ... < 10 µM
3. COc1ccc(C(=O)O)cc1N1C(=O)C(=Cc2ccc(-c3ccc(C(C)(C)c4ccccc4)cc3)o2)SC1=S [Compound A97] ... 11 to 40 µM
4. CC(C)(C)OC(=O)Nc1ccccc1-c1ccc(C=C2SC(=S)N(c3cccc(C(=O)O)c3)C2=O)o1 [Compound A157] ... > 41 µM
5. O=C(O)c1cc(C(=O)O)cc(N2C(=O)C(=Cc3ccc(-c4ccc(Cl)cc4)o3)SC2=S)c1 [Compound A232] ... 11 to 40 µM
6. CCc1ccc(-c2ccc(C=C3SC(=S)N(c4cc(C(=O)O)cc(C(F)(F)F)c4)C3=O)o2)cc1 [Compound A225] ... 11 to 40 µM
7. O=C(O)CCc1cccc(N2C(=O)C(=Cc3ccc(-c4cccc(Cl)c4)o3)SC2=S)c1 [Compound A119] ... < 10 µM

###

Target: dihydrolipoamide acyltransferase (DlaT) (Mycobacterium tuberculosis, UniProt P9WIS7)
Assay: DlaT inhibition (Dlat IC50); DTNB peroxidase assay with Lpd, DlaT and AhpD
Format: biochemical
Settings: Table 1, Compounds A1 to A294; read-out: Dlat IC50 category
endpoint: IC50

1. COc1ccc(-c2ccc(C=C3SC(=S)N(c4cccc(C(=O)O)c4)C3=O)o2)c(C)c1 ... 11 to 40 µM
2. O=C(O)c1cc(C(=O)O)cc(N2C(=O)C(=Cc3ccc(-c4ccccc4F)o3)SC2=S)c1 ... > 41 µM
3. CCCCc1ccc(-c2ccc(C=C3SC(=S)N(c4cccc(C(=O)O)c4)C3=O)o2)cc1 ... < 10 µM
4. O=C(O)CCc1cccc(N2C(=O)C(=Cc3ccc(-c4ccccc4Cl)o3)SC2=S)c1 ... < 10 µM
